tested on: THP-1 cells; test: In vitro phagocytic assay: ingestion of CM-Orange-labeled chilled or room temperature human platelets by THP-1 phagocytes (flow cytometry); format: cell-based; conditions: chilled platelets; various concentrations
MEASURED PARAMETER: inhibitory effect on chilled platelet phagocytosis (in words)

| COMPOUND | MEAS VALUE |
| --- | --- |
| O=C[C@@H](O)[C@@H](O)[C@H](O)[C@H](O)CO [D-(+)-mannose] | no inhibitory effect |
| CO[C@@H]1O[C@H](CO)[C@@H](O)[C@H](O)[C@@H]1O [Methyl-β-D-mannopyranoside] | no inhibitory effect |
